Target: HDAC8 (Homo sapiens, UniProt Q9BY41)
Sequence (Q9BY41 1-377): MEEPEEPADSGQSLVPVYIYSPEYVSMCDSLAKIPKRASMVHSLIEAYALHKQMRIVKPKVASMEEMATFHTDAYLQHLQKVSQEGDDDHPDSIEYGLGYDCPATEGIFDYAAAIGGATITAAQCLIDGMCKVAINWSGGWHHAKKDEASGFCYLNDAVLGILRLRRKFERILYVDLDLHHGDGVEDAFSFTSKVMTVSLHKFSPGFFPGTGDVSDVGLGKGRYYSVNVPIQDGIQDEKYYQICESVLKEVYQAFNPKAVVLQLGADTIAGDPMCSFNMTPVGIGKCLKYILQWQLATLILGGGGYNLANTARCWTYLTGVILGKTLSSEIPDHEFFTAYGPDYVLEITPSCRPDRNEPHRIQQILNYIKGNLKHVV
Experiment: HDAC enzyme activity assay (fluorogenic, Boc-Lys(trifluoroacetyl)-AMC substrate), HDAC8
Settings: recombinant HDAC8; BOC-LYS-(TFA)-AMC as substrate, 100 mM TRIS, 300 mM KCl, pH 8.0 buffer, 30 °C
pIC50: −log10 of the molar value.
result type: pIC50

INSERT INTO results (compound, value_operator, number) VALUES
  ('CSc1nc(C)cc(OCC(=O)NO)n1 [compound 12]', '=', 4.55),
  ('CCCc1c(C)nc(SC)nc1OCCCCCC(=O)NO [compound 29]', '=', 5.92),
  ('CCCc1c(C)nc(SC)n(CCCC(=O)NO)c1=O [compound 31]', '<', 4.46),
  ('Cc1cc(OCC(=O)NO)nc(NCc2ccccc2)n1 [compound 15]', '=', 4.85),
  ('C=CCNc1nc(C)cc(OCC(=O)NO)n1 [compound 14]', '=', 4.82),
  ('Cc1cc(OCC(=O)NO)nc(O)n1 [compound 18]', '=', 4.22),
  ('Cc1cc(OCC(=O)NO)nc(N2CCCC2)n1 [compound 17]', '=', 4.89),
  ('CCSc1nc(C)cc(OCC(=O)NO)n1 [compound 13]', '=', 4.89);

meta.source: paper PMC9296983
